FYI, the data here is from PubChem BioAssay (NCATS).

Tested on: PC49
Assay Explanation: qHTS profiling for inhibitors of Plasmodium falciparum proliferation (AID 504749);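 further: 0% = DMSO vehicle and full inhibition = artemisinin control; nearly all actives have a fitted effect of over 60% in size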
Settings: P. falciparum in erythrocytes, SYBR Green DNA, 72 h; series mostly up to 28.7 µM
Records with an inconclusive call do not appear. The source made the active and inactive calls. The call rests on the fitted dose curve; in most records, active means well fitted inhibition curve with a large enough effect; inconclusive means small, poorly fitted or top-dose-only effect; inactive means flat fitted curve, though single readings scatter.
Output constraint: value belongs to active, inactive

Some entries whose results are on file:
{"columns": ["Molecule", "Class"],
 "data": [
  ["C1COC(NC(C2CC2)C2CC2)=N1", "inactive"],
  ["Nc1nc2c(ncn2COCCO)c(=O)[nH]1", "inactive"],
  ["NCCCC(N)(C(=O)O)C(F)F (stereo unspecified)", "inactive"],
  ["NCCc1ccc(O)c(O)c1", "inactive"],
  ["Cn1cnc([N+](=O)[O-])c1Sc1ncnc2nc[nH]c12", "inactive"]
]}

### Prompt Status in this test for Oc1ccc(C2CNCCc3c2cc(O)c(O)c3Cl)cc1 (stereo unspecified) ?
### Response inactive

### Prompt Field: outcome | Entry: Cc1cn[nH]c1
### Response inactive

### Prompt Could you check what this test reported for CCc1ccc(CCOc2ccc(CC3SC(=O)NC3=O)cc2)nc1 (stereo unspecified) ?
### Response inactive

### Prompt Which outcome was entered for the molecule Clc1cccc(Cl)c1NC1=NCCN1 in this test?
### Response inactive

### Prompt State the result this test recorded for O=c1[nH]cnc2[nH]ncc12 .
### Response inactive

---

Assay Explanation: qHTS of pediatric cancer cell lines to identify multiple opportunities for drug repurposing: Primary screen for NB-EBc1 cells (AID 1347095)
Settings: NB-EBc1 neuroblastoma viability, CellTiter-Glo luminescence, 48 h; series mostly up to 46 µM
Inconclusive results are not listed. Activity calls are given as the source filed them. Calls follow the shape of the dose curve; as a rule, active = well fitted cell-killing curve with a large enough effect; inconclusive = small, poorly fitted or top-dose-only effect; inactive = no such curve, though single readings can be large or run the other way.
Entry note: the call must match one of Yes for active, No for inactive

Some entries whose results are on file:
{"columns": ["Compound", "Class"],
 "data": [
  ["Cc1ccc(N(CC2=NCCN2)c2cccc(O)c2)cc1", "No"],
  ["COc1ccc(COc2cc3oc(=O)c4cc(C(C)O)ccc4c3cc2OC)cc1 (stereo not drawn)", "Yes"],
  ["CCn1cc(C(=O)O)c(=O)c2cc(F)c(N3CCNC(C)C3)c(F)c21 (stereo not drawn)", "No"]
]}

### Prompt Lab log entry: Nc1ncnc2nc(-c3ccc(N4CCOCC4)nc3)cc(-c3cccc(Br)c3)c12 — outcome as called in the assay?
### Response No

### Prompt Entry Clc1ccc(Nc2nnc(Cc3ccncc3)c3ccccc23)cc1 : call = ?
### Response No

### Prompt Field: outcome | Entry: O=c1[nH]cnc2[nH]ncc12
### Response No

### Prompt Please state the recorded outcome for this compound: COc1c(Cl)cc2c([nH]c3cnccc32)c1NC(=O)c1cccnc1C
### Response No

### Prompt Entry CN(C)C(=O)c1ccc(S(=O)(=O)c2ccc(NC(=O)[C@@](C)(O)C(F)(F)F)c(Cl)c2)cc1 : call = ?
### Response No

### Prompt Hi, do you know how Cc1ccc(-n2nc(C(C)(C)C)cc2NC(=O)Nc2ccc(OCCN3CCOCC3)c3ccccc23)cc1 came out in this test?
### Response No

### Prompt What classification did Clc1cccc(Cl)c1NC1=NCCN1 end up with in this test?
### Response No

### Prompt Query: recorded result category for N#Cc1ccc(C(c2ccc(C#N)cc2)n2cncn2)cc1 in this test
### Response No

### Prompt What call does the record list for O=C(C1CC1)N1CC[C@@H](Cn2c(-c3ccc(-c4ccc5occc5c4)cc3)nc3cnccc32)C1 ?
### Response Yes

### Prompt Tell me the assay call for CN(C)c1ccc(C2Nc3ccc4ccccc4c3C3=C2C(=O)CC(C)(C)C3)cc1Br (stereo not drawn) please.
### Response No

---

Assay Explanation: Quantitative High-Throughput drug screen in 47 multiple myeloma cell lines against the NCATS MIPE library collection: OPM2_DSMZ cell viability assay (AID 1919872); further: nearly all actives have a fitted effect of over 30% in size
Settings: OPM2 myeloma viability, CellTiter-Glo ATP luminescence, 48 h; series mostly up to 45.8 µM
Description: PI: Beverly A. Mock Ph.D. Laboratory of Cancer Biology and Genetics, Center for Cancer Research, National Cancer Institute, National Institute of Health, Bethesda, Maryland […] 5; Detector; 425V; Luminescence; Viewlux PerkinElmer. […] 1. […] Briefly, the corresponding myeloma cell lines were screened in 1,536-well plates with 500 cells, 5-uL per well for inhibition of cell viability (assessed by measuring ATP levels with CellTiterGlo). […]
Inconclusive results are not listed. Activity calls are given as the source filed them. Calls come from the whole dose curve; as a rule, active = well fitted cell-killing curve with a large enough effect; inconclusive = small, poorly fitted or top-dose-only effect, or effect the other way; inactive = no such curve, though single readings can be large or run the other way.
Measured Property: outcome

Known outcome results, listed for orientation:
{"columns": ["Compound", "Result"],
 "data": [
  ["Cc1ccc(-n2nc(C(C)(C)C)cc2NC(=O)Nc2ccc(OCCN3CCOCC3)c3ccccc23)cc1", "inactive"],
  ["CC(C)OC(=O)C1=CN(C(=O)c2ccc(F)c(F)c2)CC(C)(C)c2c1[nH]c1ccccc21", "inactive"],
  ["CC1(C)SCCN(S(=O)(=O)c2ccc(OCC#CCO)cc2)[C@@H]1C(=O)NO", "inactive"],
  ["C[C@]12CC[C@H](O)CC1=CC[C@@H]1[C@H]2CC[C@]2(C)C(c3cccnc3)=CC[C@H]12", "inactive"]
]}

### Prompt Sample O=C(O)COCCN1CCN(C(c2ccccc2)c2ccc(Cl)cc2)CC1 (stereo unspecified) — what was its outcome?
### Response inactive

### Prompt Value lookup for outcome; key = O=C(O)CCc1ccc(NCc2cccc(Oc3ccccc3)c2)cc1
### Response inactive

---

Entries annotated with measured activity, negative = cell killing
Assay Explanation: Drug repurposing screens with cells derived from glioblastoma tumor samples (AID 1345199); further: on the % scale 0 is the no-effect control and ±100 the full control effect; nearly all actives have a fitted effect of over 40% in size
Settings: GBM patient neurospheres viability, ATP luminescence, 48 h; at 45.9 µM (top of the series); tumour line D
Records with an inconclusive call do not appear.
All answers are understood in %, so give the number only.

Below, 3 compounds whose answers are already recorded.
{"columns": ["Structure Notation", "activity, negative = cell killing (%)"],
 "data": [
  ["NC[C@H](O)c1ccc(O)c(O)c1", -7.44],
  ["N=c1nc(N2CCCCC2)cc(N)n1O", -11],
  ["Cc1ccc(-n2nc(C(C)(C)C)cc2NC(=O)Nc2ccc(OCCN3CCOCC3)c3ccccc23)cc1", -19.4]
]}

Please find the next compound below.
### Prompt Entry CNC[C@H](O)c1cccc(O)c1 : reported activity, negative = cell killing = ?
### Response 6.94

---

Assay Explanation: Identifying Small Molecule Inhibitors of Pancreatic Cancer Stem Cells (A278, Adherent) (AID 1259361);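 further: viability read after 48 h compound exposure; nearly all actives have a fitted effect of over 35% in size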
Settings: series mostly up to 46.1 µM
Inconclusive results are not listed. Activity calls are given as the source filed them. The call rests on the fitted dose curve; in most records, active means well fitted cell-killing curve with a large enough effect; inconclusive means small, poorly fitted or top-dose-only effect; inactive means flat fitted curve, though single readings scatter.
Outcomes you can answer with include only these: 1 = active, 0 = inactive

Observe how each entry below is paired with its result.
{"columns": ["Compound", "Class"],
 "data": [
  ["OC(CN1CCC(Cc2ccc(F)cc2)CC1)c1ccc(Cl)cc1 (centres undefined)", 0],
  ["COc1ccc(-c2c(-c3ccc(O)cc3O)n[nH]c2C)cc1", 1],
  ["Cn1cc(-c2ccc3nnc(C(F)(F)c4ccc5ncccc5c4)n3n2)cn1", 0]
]}

Proceed to the following item.
### Prompt # fetch the recorded call for CCc1cc(Nc2nccc(-c3c(-c4ccc(OC)c(C(=O)Nc5c(F)cccc5F)c4)nc4ccccn34)n2)c(OC)cc1N1CCC(N2CCN(S(C)(=O)=O)CC2)CC1 here
### Response 0

---

Assay Explanation: Identifying Small Molecule Inhibitors of Pancreatic Cancer Stem Cells (SN12C, Spheroid) (AID 1259360)
Settings: SN12C spheroid viability; series mostly up to 46.1 µM
Results filed as inconclusive are left out. The source made the active and inactive calls. Calls follow the shape of the dose curve; as a rule, active = well fitted cell-killing curve with a large enough effect; inconclusive = small, poorly fitted or top-dose-only effect, or effect the other way; inactive = flat fitted curve, though single readings scatter.
// allowed return values: active, inactive

{"columns": ["Structure Notation", "Class"],
 "data": [
  ["COc1cc2nccc(Oc3ccc(NC(=O)NC4CC4)c(Cl)c3)c2cc1C(N)=O", "inactive"],
  ["CCOc1ccc(Cc2cc([C@@H]3O[C@H](CO)[C@@H](O)[C@H](O)[C@@H]3O)ccc2Cl)cc1", "inactive"],
  ["Cc1c(CN2CCN(C(=O)C(C)C)CC2)sc2c(N3CCOCC3)nc(-c3cnc(N)nc3)nc12", "active"],
  ["Nc1cccc(S(=O)(=O)N2CCCN(S(=O)(=O)c3ccc4c(c3)OCCO4)CC2)c1", "inactive"],
  ["CCN(c1ccccc1)c1cc(NC)[n+](C)c(C)n1", "inactive"],
  ["CC(C)C[C@H](NC(=O)[C@@H](O)[C@H](N)Cc1ccccc1)C(=O)O", "inactive"],
  ["O=C(OCC#CCSc1nnc(-c2ccc3ccccc3c2)o1)c1cc2ccccc2s1", "inactive"]
]}

Consider now this further molecule.
### Prompt Give the logged outcome of this assay for the following molecule: Cc1cccc(-c2[nH]c(C(C)(C)C)nc2-c2ccc3nccnc3c2)n1
### Response inactive

---

Assay Explanation: qHTS for differential inhibitors of proliferation of Plasmodium falciparum line 3D7 (AID 1876)
Settings: P. falciparum 3D7 proliferation inhibition; series mostly up to 28.7 µM
Records with an inconclusive call do not appear. Activity calls are given as the source filed them. The call rests on the fitted dose curve; in most records, active means well fitted curve in the direction sought with a large enough effect; inconclusive means small, poorly fitted or top-dose-only effect, or another doubt; inactive means no such curve, though single readings can be large or run the other way.
# valid calls are 1 for active, -1 for inactive; nothing else

Consider the following illustrative entries.
{"columns": ["Compound", "Class"],
 "data": [
  ["N[C@@H]1CONC1=O", -1],
  ["NC(=O)c1cnccn1", -1],
  ["N=c1nc(N2CCCCC2)cc(N)n1O", -1],
  ["Nc1nc2ccc(OC(F)(F)F)cc2s1", -1],
  ["CC(C)C[C@H](NC(=O)[C@@H](O)[C@H](N)Cc1ccccc1)C(=O)O", 1]
]}

Note: attention shifts to another entry.
### Prompt Per the records of this test, what outcome belongs to O=c1[nH]cnc2[nH]ncc12 ?
### Response -1
